Test system: HCC1937
Test: drug sensitivity score (DSS), CellTiter-Glo (DSS (AUC-based score)); higher = stronger drug effect (viability inhibition or cytotoxicity); extreme values may be limits of the assay
Conditions: incubation time: 72 h
This section presents compounds with their documented drug sensitivity score values.
endpoint name: drug sensitivity score

C=CCN(/C=C1/C(=O)O[C@H](COC)[C@@]2(C)C1=C(O)C(=O)C1=C2[C@H](OC(C)=O)C[C@]2(C)C(=O)CC[C@@H]12)CC=C    0
COc1cc(Nc2c(C#N)cnc3cc(OCCCN4CCN(C)CC4)c(OC)cc23)c(Cl)cc1Cl    7.57
Cc1cc(Nc2nc(N[C@@H](C)c3ncc(F)cn3)ncc2Cl)[nH]n1    0
O=C(CCCCCCC(=O)Nc1ccccc1)NO    3.4

====

System: HCC1143
Test: normalised response (% of control), CellTiter-Glo; higher = more viable cells (100 = DMSO, 0 = benzethonium chloride kill control)
Conditions: incubation time: 72 h
This section presents compounds with their documented normalised response values.
endpoint name: normalised response (%)

CC(C)(C)NC(=O)[C@H]1CC[C@H]2[C@@H]3CC[C@H]4NC(=O)C=C[C@]4(C)[C@H]3CC[C@]12C [Finasteride] (100 nM)    98.9
CN[C@@H](C)C(=O)N[C@H]1CN(C(=O)CC(C)C)CC[C@H]2CC[C@@H](C(=O)NC(c3ccccc3)c3ccccc3)N2C1=O [AT-406] (100 nM)    103
CCN(CC)CCCC(C)Nc1ccnc2cc(Cl)ccc12 (configuration not stated) [Chloroquine] (1000 nM)    97.4
CO[C@@H]1[C@H](N(C)C(=O)c2ccccc2)C[C@H]2O[C@]1(C)n1c3ccccc3c3c4c(c5c6ccccc6n2c5c31)C(=O)NC4 [Midostaurin] (100 nM)    95.3
CN(C)C(=N)NC(=N)N [Metformin] (1000 nM)    102
CC1(C)CCC(c2ccc(Cl)cc2)=C(CN2CCN(c3ccc(C(=O)NS(=O)(=O)c4ccc(N[C@H](CCN5CCOCC5)CSc5ccccc5)c(S(=O)(=O)C(F)(F)F)c4)cc3)CC2)C1 [Navitoclax] (100 nM)    95.6
C/C(=C\c1csc(C)n1)[C@@H]1C[C@@H]2O[C@]2(C)CCC[C@H](C)[C@H](O)[C@@H](C)C(=O)C(C)(C)[C@@H](O)CC(=O)N1 [Ixabepilone] (10 nM)    102

====

Tested on: BT-474
Experiment: normalised viability (% of control), CellTiter-Blue; higher = more viable cells (100 = DMSO, 0 = benzethonium chloride kill control)
Conditions: incubation time: 72 h
endpoint name: normalised viability (%)

COc1c2occc2cc2ccc(=O)oc12 [Methoxsalen] (1 nM)    79.9
CCN(CC)CCCC(C)Nc1ccnc2cc(Cl)ccc12 (centres undefined) [Chloroquine] (0.099 nM)    100
C=CCN(/C=C1/C(=O)O[C@H](COC)[C@@]2(C)C1=C(O)C(=O)C1=C2[C@H](OC(C)=O)C[C@]2(C)C(=O)CC[C@@H]12)CC=C [PX-866] (1 nM)    102
CO[C@@]12[C@H](COC(N)=O)C3=C(C(=O)C(C)=C(N)C3=O)N1C[C@@H]1N[C@@H]12 [Mitomycin C] (1 nM)    86.7

====

This section presents compounds with their documented normalised response values.
Test system: MCF-10A
Assay: normalised response (% of control), CellTiter-Glo; higher = more viable cells (100 = DMSO, 0 = benzethonium chloride kill control)
Conditions: incubation time: 72 h
endpoint name: normalised response (%)

CC(=O)[C@]1(O)Cc2c(O)c3c(c(O)c2[C@@H](O[C@H]2C[C@H](N)[C@H](O)[C@H](C)O2)C1)C(=O)c1ccccc1C3=O [Idarubicin] (1000 nM)    27.3
CCN(CC)CCCC(C)Nc1ccnc2cc(Cl)ccc12 (centres undefined) [Chloroquine] (100000 nM)    1.88
Cc1cn(-c2cc(NC(=O)c3ccc(C)c(Nc4nccc(-c5cccnc5)n4)c3)cc(C(F)(F)F)c2)cn1 [Nilotinib] (10000 nM)    99.4
CN(Cc1cnc2nc(N)nc(N)c2n1)c1ccc(C(=O)N[C@@H](CCC(=O)O)C(=O)O)cc1 [Methotrexate] (50000 nM)    105
COc1cc(Nc2c(C#N)cnc3cc(OCCCN4CCN(C)CC4)c(OC)cc23)c(Cl)cc1Cl [Bosutinib] (10000 nM)    1.72
CC1(COc2ccc3c(c2)ncn3-c2ccc3cccc(N4CCC(N)CC4)c3n2)COC1 [Crenolanib] (10000 nM)    10.4
O=C(CCCCCCC(=O)Nc1ccccc1)NO [Vorinostat] (10000 nM)    43.3
CC(C)n1cnc2c(NCCc3ccc(O)cc3)nc(-c3csc4ccccc34)nc21 [StemRegenin 1] (10000 nM)    97.7
CN(C)C(=N)NC(=N)N [Metformin] (100000 nM)    75.6

====

Tested on: MDA-MB-436
Assay: drug sensitivity score (DSS), CellTiter-Blue viability (DSS (AUC-based score)); higher = stronger viability inhibition; extreme values may be limits of the assay
Settings: incubation time: 72 h
This section presents compounds with their documented drug sensitivity score values.
endpoint name: drug sensitivity score

CCNC(=O)CCC/C=C\C[C@@H]1[C@@H](/C=C/[C@@H](O)CCc2ccccc2)[C@H](O)C[C@@H]1O [Bimatoprost]    0
COc1cc(Nc2c(C#N)cnc3cc(OCCCN4CCN(C)CC4)c(OC)cc23)c(Cl)cc1Cl [Bosutinib]    4.98
CC(C)(C)NC(=O)[C@H]1CC[C@H]2[C@@H]3CC[C@H]4NC(=O)C=C[C@]4(C)[C@H]3CC[C@]12C [Finasteride]    0
C=CCn1c(=O)c2cnc(Nc3ccc(N4CCN(C)CC4)cc3)nc2n1-c1cccc(C(C)(C)O)n1 [MK1775]    13.3

====

This section presents molecules with their documented normalised viability values.
System: CAL-51
Test: normalised viability (% of control), CellTiter-Blue; higher = more viable cells (about 100 = DMSO control)
Conditions: incubation time: 72 h
endpoint name: normalised viability (%)

CC(O)(CS(=O)(=O)c1ccc(F)cc1)C(=O)Nc1ccc(C#N)c(C(F)(F)F)c1 (stereo unspecified) [Bicalutamide] (1000 nM)    108
Nc1ccn([C@@H]2O[C@H](CO)[C@@H](O)C2(F)F)c(=O)n1 [Gemcitabine] (100 nM)    16.3
Cn1cc(C2=C(c3cn(C4CCN(Cc5ccccn5)CC4)c4ccccc34)C(=O)NC2=O)c2ccccc21 [Enzastaurin] (1000 nM)    90.4
C=CCn1c(=O)c2cnc(Nc3ccc(N4CCN(C)CC4)cc3)nc2n1-c1cccc(C(C)(C)O)n1 [MK1775] (1000 nM)    16.6
Cc1cc(Nc2nc(N[C@@H](C)c3ncc(F)cn3)ncc2Cl)[nH]n1 [AZD1480] (100 nM)    108
CC(C)(C)NC(=O)[C@H]1CC[C@H]2[C@@H]3CC[C@H]4NC(=O)C=C[C@]4(C)[C@H]3CC[C@]12C [Finasteride] (1000 nM)    109

====

Test system: MFM-223
Experiment: normalised response (% of control), CellTiter-Glo; higher = more viable cells (100 = DMSO, 0 = benzethonium chloride kill control)
Settings: incubation time: 72 h
This section presents molecules with their documented normalised response values.
endpoint name: normalised response (%)

CC(C)C[C@H](NC(=O)[C@@H](COC(C)(C)C)NC(=O)[C@H](Cc1ccc(O)cc1)NC(=O)[C@H](CO)NC(=O)[C@H](Cc1c[nH]c2ccccc12)NC(=O)[C@H](Cc1cnc[nH]1)NC(=O)[C@@H]1CCC(=O)N1)C(=O)N[C@@H](CCCNC(=N)N)C(=O)N1CCC[C@H]1C(=O)NNC(N)=O [Goserelin] (100 nM)    94.9
C=CCn1c(=O)c2cnc(Nc3ccc(N4CCN(C)CC4)cc3)nc2n1-c1cccc(C(C)(C)O)n1 [MK1775] (100 nM)    82.4
Cn1cc(C2=C(c3cn(C4CCN(Cc5ccccn5)CC4)c4ccccc34)C(=O)NC2=O)c2ccccc21 [Enzastaurin] (100 nM)    106

====

Tested on: MDA-MB-231
Settings: 72 h
This section presents compounds with their documented EC50, CellTiter-Blue viability values.
endpoint name: EC50, CellTiter-Blue viability (nM)

CC(=O)[C@]1(O)Cc2c(O)c3c(c(O)c2[C@@H](O[C@H]2C[C@H](N)[C@H](O)[C@H](C)O2)C1)C(=O)c1ccccc1C3=O    79.6
CO[C@@]12[C@H](COC(N)=O)C3=C(C(=O)C(C)=C(N)C3=O)N1C[C@@H]1N[C@@H]12    1080
C=CCn1c(=O)c2cnc(Nc3ccc(N4CCN(C)CC4)cc3)nc2n1-c1cccc(C(C)(C)O)n1    303
CO[C@@H]1[C@H](N(C)C(=O)c2ccccc2)C[C@H]2O[C@]1(C)n1c3ccccc3c3c4c(c5c6ccccc6n2c5c31)C(=O)NC4    477
C=CCN(/C=C1/C(=O)O[C@H](COC)[C@@]2(C)C1=C(O)C(=O)C1=C2[C@H](OC(C)=O)C[C@]2(C)C(=O)CC[C@@H]12)CC=C    951
